target.of.assay: Nicotinamide N-methyltransferase (Homo sapiens)
assay.overview: Confirmatory Screen for Target Class Profiling of Small Molecule Inhibitors of Methyltransferases (AID 1745852)
assay.context: MTase-Glo luminescence, SAH detection, recombinant enzyme; measured here: NNMT max response; stronger effect = lower value
measured.attribute: activity (%)

>>> print(df.to_string())
                            compound_string                           target_of_assay  unit_label  readout_number
0  C[C@]12CC[C@@H]3c4ccc(O)cc4CC[C@H]3[C@@H]1CCC2=O  Nicotinamide N-methyltransferase (Homo sapiens)           %           -55.7
1  CC(C)(C)[C@]1(O)CCN2C[C@H]3c4ccccc4CCc4cccc(c43)[C@@H]2C1  Nicotinamide N-methyltransferase (Homo sapiens)           %           -19.3
2  CC(C)(O)c1ccccc1CC[C@@H](SCC1(CC(=O)O)CC1)c1cccc(/C=C/c2ccc3ccc(Cl)cc3n2)c1  Nicotinamide N-methyltransferase (Homo sapiens)           %           -24.6
3       CN(C)CC[C@@H](c1ccc(Cl)cc1)c1ccccn1  Nicotinamide N-methyltransferase (Homo sapiens)           %           -7.31
4  COc1ccc(Cl)cc1C(=O)NCCc1ccc(S(=O)(=O)NC(=O)NC2CCCCC2)cc1  Nicotinamide N-methyltransferase (Homo sapiens)           %           -22.1
5  Cc1cc(N)c2ccccc2[n+]1CCCCCCCCCC[n+]1c(C)cc(N)c2ccccc21  Nicotinamide N-methyltransferase (Homo sapiens)           %           -23.8

====

target.of.assay: Calcium and integrin-binding protein 1 (Homo sapiens) (UniProt Q99828)
Sequence (Q99828 whole entry, looked up): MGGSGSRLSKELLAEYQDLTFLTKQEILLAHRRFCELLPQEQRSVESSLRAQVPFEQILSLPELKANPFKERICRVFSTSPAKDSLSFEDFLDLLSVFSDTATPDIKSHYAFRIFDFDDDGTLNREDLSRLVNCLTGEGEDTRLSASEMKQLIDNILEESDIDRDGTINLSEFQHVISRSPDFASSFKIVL
assay.overview: Primary qHTS for Identification of Calcium Integrin Binding Protein 1 (CIB1) Competitor (AID 1508620);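 also: GST tagged CIB1 binding a fluorescein labelled alphaIIb integrin peptide tracer; top concentration of the series differs between compounds; % is scaled to controls: 0 for no effect and ±100 for the full control effect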
assay.context: CIB1-GST / FITC-alphaIIb peptide fluorescence polarization; series mostly up to 114 µM
Inconclusive results are not listed. Activity calls are given as the source filed them. Calls follow the shape of the dose curve; as a rule, active = well fitted inhibition curve with a large enough effect; inconclusive = small, poorly fitted or top-dose-only effect; inactive = flat fitted curve, though single readings scatter.
measured.attribute: activity change, negative = inhibition

>>> print(df.to_string())
                                    compound                      measured_attribute    result
 0  CC(C)(C)C(=O)C(Oc1ccc(Cl)cc1)n1ccnc1 (stereo not drawn)  activity change, negative = inhibition  inactive
 1  OCc1cc(C(O)CNCCCCCCOCCCCc2ccccc2)ccc1O (stereo not drawn)  activity change, negative = inhibition  inactive
 2         Nc1ccc(S(=O)(=O)Nc2ccc(Cl)nn2)cc1  activity change, negative = inhibition  inactive
 3  N[C@H]1C(O)O[C@H](CO)[C@@H](O)[C@@H]1O (stereo partly drawn)  activity change, negative = inhibition  inactive
 4  NS(=O)(=O)c1cc2c(cc1Cl)NC(CSCc1ccccc1)=NS2(=O)=O  activity change, negative = inhibition  inactive
 5  OC[C@H]1O[C@@H](O[C@@H]2[C@@H](CO)O[C@](O)(CO)[C@H]2O)[C@H](O)[C@@H](O)[C@H]1O  activity change, negative = inhibition  inactive
 6  C[C@H]1O[C@@H](n2cc(F)c(=O)[nH]c2=O)[C@H](O)[C@@H]1O  activity change, negative = inhibition  inactive
 7  CC(C)c1c(C(=O)Nc2ccccc2)c(-c2ccccc2)c(-c2ccc(F)cc2)n1CC[C@@H](O)C[C@@H](O)CC(=O)O  activity change, negative = inhibition  inactive
 8       Cc1cc2c(cc1S(N)(=O)=O)S(=O)(=O)CCC2  activity change, negative = inhibition  inactive
 9                           O=C(O)c1ccccc1O  activity change, negative = inhibition  inactive
10  NC(=O)c1ncn([C@@H]2O[C@H](CO)[C@@H](O)[C@H]2O)c1N  activity change, negative = inhibition  inactive
11              O=C1c2c(O)cccc2Cc2cccc(O)c21  activity change, negative = inhibition  inactive
12  O=c1[nH]cnc2c1ncn2[C@@H]1O[C@H](CO)[C@@H](O)[C@H]1O  activity change, negative = inhibition  inactive
13          Nc1nc2c(ncn2CCC(CO)CO)c(=O)[nH]1  activity change, negative = inhibition  inactive
14                      O=c1cc[nH]c(=O)[nH]1  activity change, negative = inhibition  inactive
15         O=C(O)c1ccccc1-c1ccc(C(F)(F)F)cc1  activity change, negative = inhibition  inactive
16           CCCCOc1cc(C(=O)OCCN(CC)CC)ccc1N  activity change, negative = inhibition  inactive
17                       O=S(=O)(O)NC1CCCCC1  activity change, negative = inhibition  inactive
18  CN1CCCCC1CCN1c2ccccc2Sc2ccc(S(C)=O)cc21 (stereo not drawn)  activity change, negative = inhibition  inactive
19  CC/C=C(\C(=O)N[C@@H]1C(=O)N2C(C(=O)OCOC(=O)C(C)(C)C)=C(COC(N)=O)CS[C@H]12)c1csc(N)n1  activity change, negative = inhibition  inactive
20                       [O-][n+]1cccc(CO)c1  activity change, negative = inhibition  inactive
21  O=C1Nc2ccc(Cl)cc2[C@@](C#CC2CC2)(C(F)(F)F)O1  activity change, negative = inhibition  inactive
22              Cc1c(Cl)cccc1Nc1ccccc1C(=O)O  activity change, negative = inhibition  inactive

====

System: PC49
assay.overview: qHTS profiling for inhibitors of Plasmodium falciparum proliferation (AID 504749); also: nearly all actives have a fitted effect of over 60% in size
assay.context: P. falciparum in erythrocytes, SYBR Green DNA, 72 h; series mostly up to 28.7 µM
Inconclusive results are not listed. The source made the active and inactive calls. The call rests on the fitted dose curve; in most records, active means well fitted inhibition curve with a large enough effect; inconclusive means small, poorly fitted or top-dose-only effect; inactive means flat fitted curve, though single readings scatter.
Labels: y = active, n = inactive

                                    molecule  discrete_label
 0  CC(C(O)c1ccc(O)cc1)N1CCC(Cc2ccccc2)CC1 (stereo unspecified)               n
 1  C[C@@H]1CN(c2c(F)c(F)c3c(=O)c(C(=O)O)cn(C4CC4)c3c2F)C[C@H](C)N1               n
 2            O=S(=O)(O)c1cc(I)c(O)c2ncccc12               n
 3  COc1ccc2[nH]c(S(=O)Cc3ncc(C)c(OC)c3C)nc2n1 (stereo unspecified)               y
 4                           NCC(=O)CCC(=O)O               n
 5    CC(=O)c1ccc2c(c1)N(CCCN(C)C)c1ccccc1S2               n
 6                            O=C(O)c1ccccn1               n
 7                            CC(=O)CCC(=O)O               n
 8  CC(O)CN(CCN(CC(C)O)CC(C)O)CC(C)O (stereo unspecified)               n
 9             Nc1ccc(S(=O)(=O)Nc2ccccc2)cc1               n
10  CC1=C(/C=C/C(C)=C/C=C/C(C)=C/C(=O)O)C(C)(C)CCC1               n
11                            O=Cc1ccccc1C=O               n
12  COc1ccc(Cl)cc1C(=O)NCCc1ccc(S(=O)(=O)NC(=O)NC2CCCCC2)cc1               n
13             O=C(Oc1ccccc1C(=O)O)c1ccccc1O               n
14       Cc1cccc(Nc2cc(Cl)nc(SCC(=O)O)n2)c1C               n
15                                NCCNCCNCCN               n
16              C[C@H](N)[C@H](O)c1cccc(O)c1               n
17      Cc1cccc(C)c1NC(=O)CN(CC(=O)O)CC(=O)O               n
18      CC(O)COc1ccccc1 (stereo unspecified)               n
19  CCOc1ccc2ccccc2c1C(=O)N[C@@H]1C(=O)N2[C@@H]1SC(C)(C)[C@@H]2C(=O)O               n
20                   O=C1NS(=O)(=O)c2ccccc21               n
21       Cc1cc2c(cc1S(N)(=O)=O)S(=O)(=O)CCC2               n
22  Cc1cc(O)cc2c1O[C@](C)(CCC[C@H](C)CCC[C@H](C)CCCC(C)C)CC2               n
23                     CCCCOC(=O)c1ccc(O)cc1               n
24          O=C(O)COc1nn(Cc2ccccc2)c2ccccc12               n
25              Cc1c(Cl)cccc1Nc1ccccc1C(=O)O               n
26  Nc1ncnc2c1ncn2[C@@H]1O[C@H](CO)[C@@H](O)[C@H]1O               n
27  O=C1OC(OC(=O)c2cccnc2Nc2cccc(C(F)(F)F)c2)c2ccccc21 (stereo unspecified)               n
28  OCc1cc(C(O)CNCCCCCCOCCCCc2ccccc2)ccc1O (stereo unspecified)               n
29  CCOC(=O)[C@H](CCc1ccccc1)N[C@@H](C)C(=O)N1C(=O)N(C)C[C@H]1C(=O)O               n
30            COc1cc(C)c(Cc2cnc(N)nc2N)cc1OC               n
31     COc1ccc(S(=O)(=O)Nc2nnc(CC(C)C)s2)cc1               n
32                           O=c1cc(CO)occ1O               n
33                          NC(=O)NNc1ccccc1               n
34  COCCOC(=O)C1=C(C)NC(C)=C(C(=O)OC/C=C/c2ccccc2)C1c1cccc([N+](=O)[O-])c1 (stereo unspecified)               n
35  OCC(O)CN1CCN(c2ccccc2)CC1 (stereo unspecified)               n
36             CC(=O)Nc1ccc(/C=N/NC(N)=S)cc1               n
37                      O=c1cc[nH]c(=S)[nH]1               n
38     Cc1cc(CC(=O)O)n(C)c1C(=O)c1ccc(Cl)cc1               n
39              Nc1ccc(S(=O)(=O)Nc2nccs2)cc1               n
40       O=c1[nH]c(=O)c2[nH]c(=O)[nH]c2[nH]1               n
41           CCCCN(CCCC)CCCOC(=O)c1ccc(N)cc1               n
42                           O=C(O)c1ccccc1O               n
43          CC[C@@]1(c2ccccc2)NC(=O)N(C)C1=O               n
44              C[C@](N)(Cc1ccc(O)cc1)C(=O)O               n
45           CCCCOc1cc(C(=O)OCCN(CC)CC)ccc1N               n

Cited source: PubChem BioAssay (NCATS)
